- subject-of-test: Peroxisome proliferator-activated receptor gamma (Mus musculus, UniProt P37238)
- Sequence (P37238 whole entry): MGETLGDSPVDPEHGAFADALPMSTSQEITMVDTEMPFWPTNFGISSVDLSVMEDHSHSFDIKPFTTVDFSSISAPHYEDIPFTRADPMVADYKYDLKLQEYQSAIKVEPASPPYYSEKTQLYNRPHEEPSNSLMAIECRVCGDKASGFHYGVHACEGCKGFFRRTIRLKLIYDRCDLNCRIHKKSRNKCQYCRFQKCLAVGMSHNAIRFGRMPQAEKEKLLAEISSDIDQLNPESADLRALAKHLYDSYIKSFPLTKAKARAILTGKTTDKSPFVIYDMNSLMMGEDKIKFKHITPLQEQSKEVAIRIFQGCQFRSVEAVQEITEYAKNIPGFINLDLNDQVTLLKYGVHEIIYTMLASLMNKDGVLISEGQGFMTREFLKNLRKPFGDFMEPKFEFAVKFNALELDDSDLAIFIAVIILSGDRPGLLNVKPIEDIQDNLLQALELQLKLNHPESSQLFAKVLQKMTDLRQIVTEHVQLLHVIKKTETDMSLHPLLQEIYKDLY
- experiment-summary: Agonist activity at PPARgamma in mouse 3T3-L1 cells by IRBA
- Type: functional, cell-based
pEC50: −log10 of the molar value.
pEC50 vs 7: at or above is yes (1), below is no (0).

given-smiles: CCOc1csc(-c2ccc(OCCCOc3ccc4c(c3)CC[C@H]4CC(=O)O)nc2)n1
class-assignment: no (0)

given-smiles: Cc1cnc(-c2ccc(C(C)C)cc2)nc1N(C)CCCOc1ccc2c(c1)CC[C@H]2CC(=O)O
class-assignment: yes (1)

given-smiles: CC(=O)c1sc(-c2ccc(OCCCOc3ccc4c(c3)CC[C@H]4CC(=O)O)nc2)nc1C
class-assignment: yes (1)

given-smiles: CCc1csc(-c2ccc(OCCCOc3ccc4c(c3)CC[C@H]4CC(=O)O)nc2)n1
class-assignment: no (0)

====

- subject-of-test: Peroxisome proliferator-activated receptor alpha (Homo sapiens)
- Sequence (Q07869 whole entry): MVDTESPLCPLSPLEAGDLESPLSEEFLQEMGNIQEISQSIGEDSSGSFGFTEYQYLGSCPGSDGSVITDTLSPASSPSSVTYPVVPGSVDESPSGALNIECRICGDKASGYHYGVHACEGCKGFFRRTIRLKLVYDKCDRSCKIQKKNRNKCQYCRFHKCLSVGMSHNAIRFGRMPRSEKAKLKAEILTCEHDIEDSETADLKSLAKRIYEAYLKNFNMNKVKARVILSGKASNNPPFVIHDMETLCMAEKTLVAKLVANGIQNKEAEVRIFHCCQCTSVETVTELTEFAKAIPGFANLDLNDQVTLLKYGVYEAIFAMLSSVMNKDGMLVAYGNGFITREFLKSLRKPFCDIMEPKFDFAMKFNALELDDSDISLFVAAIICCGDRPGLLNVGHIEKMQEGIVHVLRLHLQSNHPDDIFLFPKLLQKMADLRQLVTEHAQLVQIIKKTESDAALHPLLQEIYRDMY
- experiment-summary: Agonist activity at human PPARalpha by FRET assay
pEC50: −log10 of the molar value.
Form field: pEC50 (one value per entry).

given-smiles: COc1ccc(-c2ncc(C)c(N(C)CCCOc3ccc4c(c3)CC[C@H]4CC(=O)O)n2)cc1
subject-of-test: Peroxisome proliferator-activated receptor alpha (Homo sapiens)
pEC50: 5.86

given-smiles: Cc1cnc(-c2cccc(Cl)c2)nc1N(C)CCCOc1ccc2c(c1)CC[C@H]2CC(=O)O
subject-of-test: Peroxisome proliferator-activated receptor alpha (Homo sapiens)
pEC50: 5.63

given-smiles: CCc1ccc(-c2ncc(C)c(N(C)CCCOc3ccc4c(c3)CC[C@H]4CC(=O)O)n2)cc1
subject-of-test: Peroxisome proliferator-activated receptor alpha (Homo sapiens)
pEC50: 6.70

given-smiles: CCc1ccc(-c2nccc(N(C)CCCOc3ccc4c(c3)CC[C@H]4CC(=O)O)n2)cc1
subject-of-test: Peroxisome proliferator-activated receptor alpha (Homo sapiens)
pEC50: 6.25

given-smiles: CCc1csc(-c2ccc(OCCCOc3ccc4c(c3)CC[C@H]4CC(=O)O)nc2)n1
subject-of-test: Peroxisome proliferator-activated receptor alpha (Homo sapiens)
pEC50: 6.38

given-smiles: Cc1cccc(-c2ncc(C)c(N(C)CCCOc3ccc4c(c3)CC[C@H]4CC(=O)O)n2)c1
subject-of-test: Peroxisome proliferator-activated receptor alpha (Homo sapiens)
pEC50: 5.36

given-smiles: CCc1ccc(-c2ncc(CC)c(N(C)CCCOc3ccc4c(c3)CC[C@H]4CC(=O)O)n2)cc1
subject-of-test: Peroxisome proliferator-activated receptor alpha (Homo sapiens)
pEC50: 6.92

given-smiles: CCc1ccc(-c2ncc(F)c(N(C)CCCOc3ccc4c(c3)CC[C@H]4CC(=O)O)n2)cc1
subject-of-test: Peroxisome proliferator-activated receptor alpha (Homo sapiens)
pEC50: 6.37

given-smiles: Cc1cnc(-c2ccccc2)nc1N(C)CCCOc1ccc2c(c1)CC[C@H]2CC(=O)O
subject-of-test: Peroxisome proliferator-activated receptor alpha (Homo sapiens)
pEC50: 5.18

given-smiles: CCOc1ccc(-c2ncc(C)c(N(C)CCCOc3ccc4c(c3)CC[C@H]4CC(=O)O)n2)cc1
subject-of-test: Peroxisome proliferator-activated receptor alpha (Homo sapiens)
pEC50: 5.51

given-smiles: CCOc1csc(-c2ccc(OCCCOc3ccc4c(c3)CC[C@H]4CC(=O)O)nc2)n1
subject-of-test: Peroxisome proliferator-activated receptor alpha (Homo sapiens)
pEC50: 6.09

given-smiles: CCc1ccc(-c2nc(C)cc(N(C)CCCOc3ccc4c(c3)CC[C@H]4CC(=O)O)n2)cc1
subject-of-test: Peroxisome proliferator-activated receptor alpha (Homo sapiens)
pEC50: 6.04

given-smiles: Cc1cnc(-c2ccc(F)cc2)nc1N(C)CCCOc1ccc2c(c1)CC[C@H]2CC(=O)O
subject-of-test: Peroxisome proliferator-activated receptor alpha (Homo sapiens)
pEC50: 5.67

given-smiles: CC(=O)c1ccc(-c2ncc(C)c(N(C)CCCOc3ccc4c(c3)CC[C@H]4CC(=O)O)n2)cc1
subject-of-test: Peroxisome proliferator-activated receptor alpha (Homo sapiens)
pEC50: 5.18

given-smiles: Cc1nc(-c2ccc(OCCCOc3ccc4c(c3)CC[C@H]4CC(=O)O)nc2)sc1C
subject-of-test: Peroxisome proliferator-activated receptor alpha (Homo sapiens)
pEC50: 5.17

given-smiles: Cc1cnc(-c2ccc(C(C)(C)C)cc2)nc1N(C)CCCOc1ccc2c(c1)CC[C@H]2CC(=O)O
subject-of-test: Peroxisome proliferator-activated receptor alpha (Homo sapiens)
pEC50: 6.19

given-smiles: Cc1ccc(-c2ncc(C)c(N(C)CCCOc3ccc4c(c3)CC[C@H]4CC(=O)O)n2)cc1
subject-of-test: Peroxisome proliferator-activated receptor alpha (Homo sapiens)
pEC50: 5.94

given-smiles: CCOc1cccc(-c2ncc(C)c(N(C)CCCOc3ccc4c(c3)CC[C@H]4CC(=O)O)n2)c1
subject-of-test: Peroxisome proliferator-activated receptor alpha (Homo sapiens)
pEC50: 5.45

given-smiles: Cc1cnc(-c2ccc(C(C)C)cc2)nc1N(C)CCCOc1ccc2c(c1)CC[C@H]2CC(=O)O
subject-of-test: Peroxisome proliferator-activated receptor alpha (Homo sapiens)
pEC50: 6.00

given-smiles: CC(=O)c1sc(-c2ccc(OCCCOc3ccc4c(c3)CC[C@H]4CC(=O)O)nc2)nc1C
subject-of-test: Peroxisome proliferator-activated receptor alpha (Homo sapiens)
pEC50: 5.86

given-smiles: Cc1cnc(-c2ccc(Cl)cc2)nc1N(C)CCCOc1ccc2c(c1)CC[C@H]2CC(=O)O
subject-of-test: Peroxisome proliferator-activated receptor alpha (Homo sapiens)
pEC50: 5.95

These data points were gathered from ChEMBL document CHEMBL1139054.
